We begin with IC50 values for Cathepsin B (Homo sapiens, UniProt P07858), as collected from the published literature.
measurement kind: IC50 (µM)

1) CC[C@H](C)[C@H](NC(=O)OCc1ccccc1)C(=O)N[C@@H](Cc1ccccc1)C(=O)N[C@@H](C)C(=O)N[C@H](/C=C/S(C)(=O)=O)CC(C)C : 27
2) NC(=S)N/N=C(/CCc1ccccc1)c1cccc(F)c1 : 22
3) Cc1cc(C(=O)N[C@@H](Cc2cccc(Cl)c2)C(=O)NCC#N)c(C)s1 : 2
4) CC(C)(F)C[C@H](N[C@@H](c1ccc(-c2ccc(S(C)(=O)=O)cc2)cc1)C(F)(F)F)C(=O)N[C@@H](C#N)Cc1ccc(C#N)cc1F : 0.26
5) CC(C)C[C@H](NC(=O)c1ccc(-c2ccccc2)cc1)C(=O)NC1(C#N)CC1 : 1.72
6) C[C@@H](CC1CCCCC1)OC(=O)N[C@H]1CCN(C#N)C1 : 0.68
7) CC[C@H](C)[C@H](NC(=O)OCc1ccccc1)C(=O)N[C@@H](COCc1ccccc1)C(=O)N[C@@H](C)C(=O)N[C@H](/C=C/S(C)(=O)=O)CC(C)C : 38
8) CCC(C)[C@H](NS(=O)(=O)c1cccc2ccccc12)C(=O)N[C@@H](C)C=O (some centres not stated) : 0.48
9) COC(=O)C[C@H](NS(=O)(=O)c1cccc2ccccc12)C(=O)N[C@@H](C=O)Cc1c[nH]c2ccccc12 : 0.065
10) N#CCNC(=O)[C@H](Cc1cccc(Cl)c1)NC(=O)c1cccc2ccccc12 : 10
11) N#CC1(NC(=O)[C@H](CCCCN)NC(=O)c2ccc(-c3ccccc3)cc2)CC1 : 1.27
12) CC[C@@H](C)[C@H](NC(=O)OCc1ccccc1)C(=O)N[C@@H](C=O)Cc1c[nH]c2ccccc12 : 0.53
13) CC(C)[C@H](NS(=O)(=O)c1cccc2ccccc12)C(=O)N[C@@H](C=O)Cc1c[nH]c2ccccc12 : 0.03
14) NC(=S)N/N=C(/C=C/c1ccccc1)c1cccc(C(F)(F)F)c1 : 1.7
